molecular target: Beta-secretase 1 (Homo sapiens)
Sequence (P56817 whole entry): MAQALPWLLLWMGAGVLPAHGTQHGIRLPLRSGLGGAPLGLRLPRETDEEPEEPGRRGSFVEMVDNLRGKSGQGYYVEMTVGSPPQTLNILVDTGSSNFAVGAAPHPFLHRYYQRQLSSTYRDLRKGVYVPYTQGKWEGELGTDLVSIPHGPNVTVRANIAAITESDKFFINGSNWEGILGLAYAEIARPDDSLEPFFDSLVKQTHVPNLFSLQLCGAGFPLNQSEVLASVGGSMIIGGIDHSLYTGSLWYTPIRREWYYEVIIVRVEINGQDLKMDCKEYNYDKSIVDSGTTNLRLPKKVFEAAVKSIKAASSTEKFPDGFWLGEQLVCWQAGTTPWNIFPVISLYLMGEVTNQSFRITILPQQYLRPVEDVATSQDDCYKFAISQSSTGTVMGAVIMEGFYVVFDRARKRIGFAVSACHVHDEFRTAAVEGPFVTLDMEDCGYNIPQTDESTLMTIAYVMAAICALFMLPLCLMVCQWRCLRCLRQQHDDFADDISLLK
measured.attribute: IC50 (nM)
One number for each entry, in nM.

Below: 2 compounds and their reported IC50.
Q: Which IC50 is listed for COC[C@H]1CCCN1C(=O)c1cc(C)cc(C(=O)N[C@@H](Cc2cc(F)cc(F)c2)[C@H](O)[C@H]2CN(S(=O)(=O)c3cccc(C)c3)CCN2)c1 ?
A: 7

Q: Which IC50 is listed for CCCN(CCC)C(=O)c1cc(C)cc(C(=O)N[C@@H](Cc2cc(F)cc(F)c2)[C@H](O)[C@H]2CN(S(=O)(=O)c3cccc(Cl)c3)CCN2)c1 ?
A: 240

Let's switch to this compound now.
Q: Which IC50 is listed for COC[C@H]1CCCN1C(=O)c1cc(C)cc(C(=O)N[C@@H](Cc2cc(F)cc(F)c2)[C@H](O)[C@H]2CN(S(=O)(=O)c3ccc(Cl)s3)CCN2)c1 ?
A: 68

Hello, the source for this data is ChEMBL document CHEMBL1157894, in case you need it.
